# protocol-details: Solubility in toluene / organic solvents at ambient temperature
# Format: physicochemical
# reported-conditions: toluene, ambient temperature
endpoint-name: solubility (concentration dissolved in toluene) (mg in 1 ml)
Give bare numbers, in mg in 1 ml.

Worked cases, answers included:
Req: Query (molecule): CC(C)(C)c1ccc(-c2nc(-c3ccc(-c4ccccc4-c4c5ccccc5c(-c5ccccc5-c5ccc(-c6nc(-c7ccc(C(C)(C)C)cc7)nc(-c7ccc(C(C)(C)C)cc7)n6)cc5)c5ccccc45)cc3)nc(-c3ccc(C(C)(C)C)cc3)n2)cc1 [compound 1] ; field requested: solubility (concentration dissolved in toluene)
Resp: 1.3

Req: Recorded solubility (concentration dissolved in toluene) of Cc1ccc(-c2nc(-c3ccc(C)cc3)nc(-c3ccc(-c4ccc5c(c4)C4(c6ccccc6-5)c5ccccc5-c5ccc(-c6ccc(-c7nc(-c8ccc(C)cc8)nc(-c8ccc(C)cc8)n7)cc6)cc54)cc3)n2)cc1 [compound 32] , please.
Resp: 6

Req: Report solubility (concentration dissolved in toluene) for Cc1ccc2c(-c3ccccc3-c3ccc(-c4nc(-c5ccc(C(C)(C)C)cc5)nc(-c5ccc(C(C)(C)C)cc5)n4)cc3)c3ccccc3c(-c3ccccc3-c3ccc(-c4nc(-c5ccc(C(C)(C)C)cc5)nc(-c5ccc(C(C)(C)C)cc5)n4)cc3)c2c1 (single isomer, unassigned) [isomer component 1 of the compound 2] please.
Resp: 34

Field: next molecule
Req: Quick one: solubility (concentration dissolved in toluene) of CC(C)(C)c1ccc(-c2nc(-c3ccc(-c4ccccc4-c4c5ccccc5c(-c5ccccc5-c5ccc(-c6nc(-c7ccc(C(C)(C)C)cc7)nc(-c7ccc(C(C)(C)C)cc7)n6)cc5)c5cc(C(C)(C)C)ccc45)cc3)nc(-c3ccc(C(C)(C)C)cc3)n2)cc1 [compound 3] ?
Resp: 150

Values compiled from patent US8475940B2.
